From: patent EP3002287B1

# Test system: SF-539
# test-method-notes: NCI in vitro 60-cell drug screen (SRB assay)
# Assay type: cell-based
# particulars: SF-539 (CNS cancer); 10^-5 molar concentration; 48 hours
Param label: returns t when Growth percent < 90%, returns f otherwise, including exact equality.

| molecule | assigned-label |
| --- | --- |
| CN(C)c1nc2ccccc2c2c(=O)c3cc(Cl)ccc3sc12 | t |
| O=c1c2cc(Cl)ccc2sc2c(N3CCN(Cc4ccccc4)CC3)nc3ccccc3c12 | f |
| O=c1c2cc(Cl)ccc2sc2c(O)nc3ccccc3c12 | f |
| COc1nc2ccccc2c2c(=O)c3cc(Cl)ccc3sc12 | t |
| O=c1c2cc(Cl)ccc2sc2c(N3CCOCC3)nc3ccccc3c12 | t |
| CN1CCN(c2nc3ccccc3c3c(=O)c4cc(Cl)ccc4sc23)CC1 | t |
| O=C(O)c1c(Sc2ccc(Cl)cc2)c(O)nc2ccccc12 | f |
| O=c1c2cc(Cl)ccc2sc2c(N3CCN(c4ccccc4)CC3)nc3ccccc3c12 | f |
| O=c1c2cc(Cl)ccc2sc2c(N3CCN(CCO)CC3)nc3ccccc3c12 | t |
